System: MOLT-4 leukemia
Assay: NCI tumour cell line growth inhibition, 48 h
measuredQuantity: TGI

Below: 6 compounds and their reported TGI.
compound	testSystem	TGI
CCOc1ccc2c(c1)[n+]([O-])c(-c1nc3ccccc3s1)c(N)[n+]2[O-]	MOLT-4 leukemia	> 100 µM
C/C(=N\Nc1ccc(Cl)cn1)c1ccccn1	MOLT-4 leukemia	> 42 µM
N#Cc1nc(C2=C(Cl)c3ccccc3OC2)[nH]c1C#N	MOLT-4 leukemia	40.5 µM
Fc1ccc(-c2nn3ncccc3c2-c2ccnc(Nc3ccc4c(c3)OCCO4)n2)cc1	MOLT-4 leukemia	> 22.4 µM
COc1ccccc1N1CCN(CCCN2/C(=C(\O)c3ccccc3)C(=O)c3c(C)cc(C)nc3S2(=O)=O)CC1	MOLT-4 leukemia	> 100 µM
c1csc(-c2cc(-c3cccs3)c(-c3ccsc3)s2)c1	MOLT-4 leukemia	> 100 µM

Q: Look up TGI of CCCCCCC(=O)C/C(=N/NC(N)=S)C(=O)NC1C2CC3CC(C2)CC1C3 (stereo unspecified) and report it.
Ans: > 100 µM

Q: Note down TGI recorded for COC(C(O)c1ccc2c(c1)OCO2)P(=O)(c1ccccc1)c1ccccc1 (stereo unspecified)
Ans: > 100 µM

Q: Specify reported TGI for the compound shown: CCc1ccc(Nc2ccc([N+](=O)[O-])cc2[N+](=O)[O-])cc1
Ans: > 100 µM

Q: Determine from records and report TGI for COC(=O)c1cc(C)c(C)c2c1NC(=O)CNC2=O
Ans: > 100 µM

Q: Annotate the compound c1cc[c]([Pb]([c]2ccccc2)[c]2ccccc2)cc1 with its measured TGI.
Ans: 71.7 µM

Q: Quote TGI reported for Clc1ccc(-c2c(C3=NCCCN3)nnn2-c2ccc(Cl)cc2)cc1 please.
Ans: 60.9 µM

* * *

Tested on: IGROV1 ovarian
Assay: NCI tumour cell line growth inhibition, 48 h
Below, each entry is listed alongside its reported TGI.

Consider the reported TGI for these molecules:
chemicalString	TGI
CNc1nc(N)c(N=O)c(Nc2ccc(Br)cc2)n1	> 100 µM
c1ccc2c(c1)nc1n2CNC1	> 100 µM

Q: Read off the recorded TGI for CCOC(=O)CCn1[nH]c(=O)c(Cl)c(Cl)c1=O
Ans: > 100 µM

* * *

Test system: UACC-257 melanoma
Assay: NCI tumour cell line growth inhibition, 48 h
Catalogue of TGI values

compound	valueMeasured
CCn1c(SCC(=O)NNC(=S)Nc2ccc(C)cc2)nc2ccccc2c1=O	> 100 µM
COc1ccc(C2=Nn3c(nnc(Cc4ccc(Cl)cc4)c3=O)SC2)cc1	> 100 µM

Q: Return reported TGI. Input compound: O=C1NN(C2=NNC3(C(=O)N2)c2ccccc2-c2ccccc23)C(c2ccccc2)=N/C1=C/c1ccc(O)cc1
Ans: > 150 µg/mL

Q: Give TGI for CN1C(=O)c2ccccc2NC(=O)C12O[C@@H]2c1cccc(O)c1 (some centres undefined)
Ans: > 100 µM

* * *

System: MCF7 breast
Experiment: NCI tumour cell line growth inhibition, 48 h
Where a SMILES comes first, the peptide text is derived from it. The star is where a group is joined. Cbz = O=C(OCc1ccccc1)*; Boc = CC(C)(C)OC(=O)*; tBu = CC(C)(C)*
measuredQuantity: TGI

Here's what some known entries look like.
compound	testSystem	TGI
CCOP(=O)(CN1CCNCCNCC1)OCC	MCF7 breast	> 100 µM
CCN(CC)CCCC(C)Nc1cnc(C(=O)Nc2cccc3ccc(OC)nc23)cn1 (centres undefined)	MCF7 breast	3.41 µM
CCc1c(C)c(C#N)c(=S)n(C2OC(COC(C)=O)C(OC(C)=O)C(OC(C)=O)C2OC(C)=O)c1C (centres undefined)	MCF7 breast	> 100 µM
Cc1ccccc1N=Nc1ccc(N/N=C2/CCCNC2=O)c(C)c1	MCF7 breast	> 100 µM
Clc1ccc(-c2c(C3=NCCCN3)nnn2-c2ccc(Cl)cc2)cc1	MCF7 breast	> 55.8 µM
CC(OC(C)(C)C)C(NC(=O)C(CCCCNC(=O)OC(C)(C)C)NC(=O)C(Cc1c[nH]c2ccccc12)NC(=O)C(Cc1ccccc1)NC(=O)OCc1ccccc1)C(=O)NC(Cc1ccccc1)C(=O)O (centres undefined) (Cbz-FWK(Boc)T(tBu)F-OH; configuration not given here)	MCF7 breast	> 100 µM

Q: # return recorded TGI for input CC(=NNC(=S)Nc1ccc(C)cc1)c1cccc(C(C)=NNC(=S)Nc2ccc(C)cc2)n1
Ans: > 100 µM

Q: Report measured TGI; entry is CCc1oc2ccccc2c1C(=O)c1cc(I)c(O)c(I)c1
Ans: 14.7 µM

Q: Answer with reported TGI of CCn1c2ccccc2n2c(=O)c3c(c(C#N)c12)CCCC3
Ans: > 100 µM

Q: // Input: Cc1ccc(C)c(COCCOCn2ccc(N)nc2=O)c1 . Output its TGI only.
Ans: > 100 µM

Q: Identify measured TGI associated with COc1ccc(/C=C\c2cc(OC)c(OC)c(OC)c2)cc1OC(=O)NCCN(C)C
Ans: > 100 µM

Q: Name the recorded TGI of the compound listed here: O=C1/C(=C/c2ccc(O)cc2)CSc2ccc(Cl)cc21
Ans: 11 µM

Q: Please report TGI for the following compound: CCCCN1CSC(=S)N(Cc2ccccc2)C1
Ans: > 100 µM

Q: Return the recorded TGI value; entry: O=C(Cc1ccccc1)N/N=C/c1ccccc1O
Ans: > 100 µM

* * *

// TGI lookup, one value per entry
Test system: SNB-19 CNS
Test: NCI tumour cell line growth inhibition, 48 h

molecule	valueMeasured
N#C/C(=C\c1cc2ccccc2c2ccccc12)c1ccccc1	45.4 µM
CSc1nc2cc(S(=O)(=O)N3CCCCC3)ccc2s1	> 100 µM
Fc1ccc(C2SCc3nc4ccccc4n32)cc1Cl (stereo not drawn)	> 100 µM
CS(=O)(=O)c1cc(=O)c2ccccc2s1	36.5 µM
COc1ccc(-n2cc(-c3cc(OC)c(OC)c(OC)c3)[nH]c2=O)cc1Cl	> 100 µM
COC(=O)C1C(=O)C=CN([C@H](C)c2ccccc2)[C@@H]1Cc1ccc(OC)c(OCc2ccccc2)c1I (stereo partly drawn)	86.4 µM

Q: Report measured TGI; entry is C=C(C)C1CCC2(C(=O)O)CCC3(C)C(CCC4C5(C)CCC(OC(=O)NCc6ccccc6)C(C)(C)C5CCC43C)C12 (stereo not drawn)
Ans: > 100 µM

Q: Query TGI for O=C1CCCCC2N(C(c3ccccc3)c3ccccc3)CC[C@@]12c1ccccc1 (mixture of isomers)
Ans: > 10 µM

Q: Supply recorded TGI for O=C1NC2OCC(O)C(O)C2O1 (stereo not drawn) here.
Ans: > 100 µM

Q: Determine from records and report TGI for CC(=O)N[C@@H](Cc1ccc(O)cn1)C(=O)NCc1cccc(Cl)c1
Ans: > 100 µM

Q: Give the value of TGI reported for the following: Cc1nc2ccccc2n1C(=O)c1c(F)c(F)c(F)c(F)c1F
Ans: > 100 µM

Q: Give a short answer stating reported TGI for Nc1nc(-c2cccc(Cl)c2)c(-c2ccc3ncccc3n2)s1 .
Ans: > 25 µM

Q: Given CCn1c(SCC(=O)NNC(=S)Nc2ccc(C)cc2)nc2ccccc2c1=O , respond with its TGI.
Ans: > 100 µM

* * *

Tested on: ACHN renal
Assay: NCI tumour cell line growth inhibition, 48 h
Here the recorded TGI is given for each entry.

Past entries and their recorded results:
chemicalString	TGI
COc1ccc(-c2cc(=O)c3ccccc3[nH]2)c(OC)c1	> 100 µM
CC1(C)CC(=O)C(/C=N/c2nc(-c3ccccc3)cs2)=C(O)C1	> 100 µM

Attention now shifts to the item below.
Q: Find the measured TGI of Cc1ccccc1N=Nc1ccc(N/N=C2/CCCNC2=O)c(C)c1 and report it.
Ans: > 100 µM

* * *

System: MALME-3M melanoma
Assay: NCI tumour cell line growth inhibition, 48 h
Below: a set of entries, each annotated with reported TGI.

Q: Fill in TGI for record COC1(OC)CC(CO)(CNc2nc(N)nc(Cl)c2/C=N\O)C1
Ans: > 100 µM

* * *

Test system: HOP-92 NSCLC
Assay: NCI tumour cell line growth inhibition, 48 h; in the data active means GI50 below about 0.43 µM; inactive means the rest
Choose the fitting class; nothing outside active, inactive is accepted.

Below are worked cases with known answers.
compound	class
Cc1ccc(C(=O)Nc2ccc(CN3CCN(C)CC3)c(C(F)(F)F)c2)cc1C#Cc1cnc(N)c2ccccc12	inactive
N#Cc1cccc(NC(=O)c2cc(-c3ccc(F)cc3F)ccc2O)c1	active

Q: For Cn1c2ccccc2c2c3[nH]c(=O)[nH]c(=O)c3c3c4ccccc4n(C)c3c21 , what call appears in the results of this test?
Ans: inactive

Q: Could you please tell me the result logged for COc1cc(NS(=O)(=O)c2ccc(-c3cnc(C4CC4)o3)cc2)ccc1F in this assay?
Ans: inactive

Q: Can you look up the reported call for Cc1ccc(NC(=O)c2sc3nc(C)c(C(O)c4ccccc4)cc3c2N)cc1 (stereo not given) for me?
Ans: inactive
